Values compiled from patent US11292798B2.

Experiment: absorption spectrum, light emission spectrum, molecular extinction coefficient and quantum efficiency in solvents
Format: physicochemical
Conditions: solvent EtOH
This listing pairs compounds with measured ε (molecular extinction coefficient).

Check out these entries, answers already filled in.
compound | value
CCOC(=O)CCCC(=O)C1=CC2=C3N(CCC2OC1=O)c1ccc2ccccc2c1C3(C)C (stereo not drawn) | 47,000 Lmol^−1cm^−1
CC1(C)C2=C3C=C(C(=O)CCCC(=O)[O-])C(=O)OC3CCN2c2ccc3cc(S(=O)(=O)[O-])ccc3c21.[Na+].[Na+] (stereo not drawn) | 47,000 Lmol^−1cm^−1

Continue with the compound presented below.
// query Fill in the blank: the reported ε (molecular extinction coefficient) of CC1(C)C2=C3C=C(C(=O)[O-])C(=O)OC3CCN2c2ccccc21.[Na+] (stereo not drawn) is ____.
// result 51,000 Lmol^−1cm^−1
